- tested_target: T1, LC3A (for ITC and NMR) (human, UniProt Q9H492 1-121)
- T1 construct: LC3A, human; 15N-labelled for NMR; also called MAP1LC3A; source: E. coli NEB T7 Express, purified
- assay_overview: ITC; peptide 0.4 mM titrated into 0.020 mM LC3/GABARAP protein in 26 steps, 25°C; 50 mM Na2HPO4, 100 mM NaCl, pH 7.0; one-site model
- experimental_parameters: both partners purified
test_readout: Kd
I'd appreciate it if you included the unit after the number.

Qu. Identify measured Kd corresponding to GAMGPQQEDEWVNVQYPD (cloning artefact left after TEV cleavage; PLEKHM1 LIR, residues 629-642; 13C,15N- or 15N-labelled for some NMR experiments; also called PLEKHM1‐LIR WT; source: E. coli NEB T7, as Ub63 fusion, TEV-cleaved, purified (Ni-NTA, reverse Ni-NTA, gel filtration)) [PLEKHM1‐LIR peptide (GAMG‐P^629QQEDEWVNVQYPD^642)]
Ans. 4.22 µM

src = paper PMC5538626
